target: ctRAGE (Homo sapiens (Human), UniProt Q15109); experiment: Fluorescence binding assay (native tryptophan fluorescence titration); conditions: 10 nM ctRAGE, pH 7.0, 5% DMSO; read-out: Fluorescent Binding Assay, Kd
property_label: Kd (nM)

A = CC(=O)Nc1ccc(-c2cc(CN3CCOCC3)c3ccc(Cl)cc3n2)cc1F
B = CC(=O)Nc1ccc(-c2cc(CN3CCOCC3)c3ccc(F)cc3n2)cc1
C = CC(=O)Nc1ccc(-c2cc(CN3CCCCC3)c3ccccc3n2)cc1
Q) Rank entries according to their Kd, from the largest number down. Quick reminder: the answer is the labels in the order asked.
A) A, B, C
(A: 1300 nM, B: 122 nM, C: 2 nM)

a = COc1ccc2c(CN3CCOCC3)cc(-c3ccc(NC(C)=O)c(F)c3)nc2c1
b = CC(=O)Nc1ccc(-c2cc(CN3CCN(C(=O)OC(C)(C)C)CC3)c3ccccc3n2)cc1
c = CC(=O)Nc1ccc(-c2cc(CN3CCOCC3)c3ccccc3n2)cc1C#N
d = CC(=O)Nc1ccc(-c2cc(CN3CCOCC3)c3ccccc3n2)cc1F
Q) Order the records, beginning with the lowest Kd and ending with the highest. Quick reminder: the answer is the labels in the order asked.
A) d, b, c, a

I = CNCCN(C)Cc1cc(-c2ccc(NC(C)=O)cc2)nc2ccccc12
II = CC(=O)Nc1ccc(-c2cc(CN3CCOCC3)c3ccc(Cl)cc3n2)cc1Cl
III = CC(=O)Nc1ccc(-c2cc(CN3CCOCC3)c3ccc(F)cc3n2)cc1F
IV = CC(=O)Nc1ccc(-c2cc(CNCCO)c3ccccc3n2)cc1
V = CC(=O)Nc1ccc(-c2cc(CN3CCOCC3)c3ccc(Cl)cc3n2)cc1C#N
Q) Order the records, beginning with the lowest Kd and ending with the highest. Quick reminder: the answer is the labels in the order asked.
A) I, IV, III, V, II
(I: 8 nM, IV: 47 nM, III: 81 nM, V: 137 nM, II: 1340 nM)

A = CC(=O)Nc1ccc(-c2cc(CNCCN(C)C)c3ccccc3n2)cc1
B = CC(C)C(=O)Nc1ccc(-c2cc(CN3CCOCC3)c3ccccc3n2)cc1
Q) Which entry shows the lesser value of Kd here, A or B ? // respond with label for picked entry
A) A
(A: 13 nM, B: 32 nM)

---

test system: Murine vascular smooth muscle cells (SMCs); test: Smooth muscle cell migration assay (wounding assay), RAGE ligand CML-AGE; format: cell-based; details: Mus musculus; CML-AGE 10 μg/ml, 7 h; read-out: SMC migration Assay, IC50
property_label: IC50 (nM)

CNCCN(C)Cc1cc(-c2ccc(NC(C)=O)cc2)nc2ccccc12 = 44
CCCCN(C)Cc1cc(-c2ccc(NC(C)=O)cc2)nc2ccccc12 = 0.08
NCC(=O)Nc1ccc(-c2cc(CN3CCOCC3)c3ccccc3n2)cc1 = 5000
COCC(=O)Nc1ccc(-c2cc(CN3CCOCC3)c3ccccc3n2)cc1 = 300
CC(=O)Nc1ccc(-c2cc(CN3CCOCC3)c3ccccc3n2)cc1F = 4
CCCNCc1cc(-c2ccc(NC(C)=O)cc2)nc2ccccc12 = 17
COc1ccc2c(CN3CCOCC3)cc(-c3ccc(NC(C)=O)cc3)nc2c1 = 10
CC(=O)Nc1ccc(-c2cc(CNCCO)c3ccccc3n2)cc1 = 18

A = CCOc1ccc2c(CN3CCOCC3)cc(-c3ccc(NC(C)=O)c(F)c3)nc2c1
B = CC(=O)Nc1ccc(-c2cc(CN3CCOCC3)c3ccc(F)cc3n2)cc1F
C = CC(=O)Nc1ccc(-c2cc(CN3CCOCC3)c3ccccc3n2)cc1Cl
D = CC(=O)Nc1ccc(-c2cc(CN3CCOCC3)c3ccc(Cl)cc3n2)cc1
E = CC(=O)Nc1ccc(-c2cc(CN3CCOCC3)c3ccc(Cl)cc3n2)cc1F
Q) Order the records, beginning with the lowest IC50 and ending with the highest. Quick reminder: the answer is the labels in the order asked.
A) D, B, C, E, A
(D: 3 nM, B: 40 nM, C: 460 nM, E: 1200 nM, A: 2900 nM)

1 = CC(=O)Nc1ccc(-c2cc(CN3CCOCC3)c3ccc(F)cc3n2)cc1
2 = CC(=O)Nc1ccc(-c2cc(CN3CCOCC3)c3ccc(C#N)cc3n2)cc1C#N
3 = COCCN(C)Cc1cc(-c2ccc(NC(C)=O)cc2)nc2ccccc12
4 = CC(C)C(=O)Nc1ccc(-c2cc(CN3CCOCC3)c3ccccc3n2)cc1
5 = CC(=O)NCC(=O)Nc1ccc(-c2cc(CN3CCOCC3)c3ccccc3n2)cc1
Q) Rank the 5 molecules: largest IC50 first, smallest last. Quick reminder: the answer is the labels in the order asked.
A) 5, 2, 4, 1, 3
(5: 3200 nM, 2: 1400 nM, 4: 99 nM, 1: 44 nM, 3: 0.4 nM)

A = CC(=O)Nc1ccc(-c2cc(CN3CCOCC3)c3ccc(C#N)cc3n2)cc1
B = CC(=O)Nc1ccc(-c2cc(CN3CCCCC3)c3ccccc3n2)cc1
Q) Which entry shows the lesser value of IC50 here, A or B ? // respond with label for picked entry
A) A
(A: 0.2 nM, B: 1 nM)

---

molecular target: binding of RAGE tail (ctRAGE) to DIAPH1 (Homo sapiens (Human)); experiment: Primary screen (high-throughput): blocking of GFP RAGE tail binding to DIAPH1; conditions: 10 μM; Table 1
Sequence (Q15109 364-404): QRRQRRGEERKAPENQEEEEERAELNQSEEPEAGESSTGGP
property_label: inhibition at 10 µM (%)

Known inhibition at 10 µM results, listed for orientation:
CC(=O)Nc1ccc(-c2cc(C(=O)O)c3ccccc3n2)cc1 = 25
COC(=O)c1cc(-c2ccncc2)nc2ccccc12 = 64
CNC(=O)c1cc(-c2ccc(C)cc2)nc2ccccc12 = 34
COC(=O)c1cc(-c2ccccc2)nc2cc(C)ccc12 = 27
CC(=O)Nc1ccc(-c2cc(C(=O)N3CCOCC3)c3ccccc3n2)cc1 = 34
COC(=O)c1cc(-c2ccc(OC)cc2)nc2ccccc12 = 51
CCCNC(=O)c1cc(-c2ccc(NC(=O)CC)cc2)nc2ccccc12 = 36
COC(=O)c1cc(-c2ccccc2C)nc2ccccc12 = 28

P = CC(=O)Nc1ccc(-c2cc(C(=O)N3CCCC3)c3ccccc3n2)cc1
Q = CC(=O)Nc1ccc(-c2cc(C(=O)NCCN(C)C)c3ccccc3n2)cc1
Q) Which entry shows the lesser value of inhibition at 10 µM here, P or Q ? // respond with label for picked entry
A) P

---

biological target: ctRAGE (Homo sapiens (Human)); test: Kd determinations (Tables 1 and 2); assay type: binding; conditions: Table 2
Sequence (Q15109 23-404 limits assumed): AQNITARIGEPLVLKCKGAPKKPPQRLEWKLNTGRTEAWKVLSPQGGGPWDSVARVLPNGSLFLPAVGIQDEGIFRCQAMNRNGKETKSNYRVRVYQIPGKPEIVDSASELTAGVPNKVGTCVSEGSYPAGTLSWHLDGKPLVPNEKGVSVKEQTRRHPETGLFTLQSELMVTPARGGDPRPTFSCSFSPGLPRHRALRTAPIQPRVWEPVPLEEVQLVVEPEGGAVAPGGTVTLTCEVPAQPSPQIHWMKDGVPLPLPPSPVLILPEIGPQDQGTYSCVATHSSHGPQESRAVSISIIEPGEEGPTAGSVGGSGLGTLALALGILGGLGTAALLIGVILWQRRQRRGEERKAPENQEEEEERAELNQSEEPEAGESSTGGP
property_label: Kd (µM)

Known Kd results, listed for orientation:
CC(=O)Nc1ccc(-c2cc(C(=O)N3CCOCC3)c3cccc(Cl)c3n2)cc1 [Compound 101] = 43
CC(=O)Nc1ccc(-c2cc(N3CCOCC3)c3ccccc3n2)cc1 [Compound 107] = 44

A = CC(=O)Nc1ccc(-c2cc(CN3CCOCC3)c3ccccc3n2)cc1 [Compound 108]
B = CC(=O)Nc1ccc(-c2cc(C(=O)N3CCOCC3)c3cc(Cl)ccc3n2)cc1 [Compound 104]
C = CC(=O)Nc1ccc(-c2cc(C(=O)N3CCOCC3)c3cccc(Cl)c3n2)nc1 [Compound 103]
Q) Order the records, beginning with the lowest Kd and ending with the highest. Quick reminder: the answer is the labels in the order asked.
A) A, C, B

---

Molecular target: UniProt Q15109
Test: Primary screen (high-throughput): blocking of GFP RAGE tail binding to DIAPH1
Conditions: 12.5 μM; Table 2
Experimental: […] Compounds that reduced binding of RAGE tail (ctRAGE) by at least 50% were then selected and subjected to 4-point dose response (10 uM, 1 uM, 0.1 uM and 0.01 uM). • Step 1. Add 50 μl anti-DIAPH1 (1:160 dilution in 0.1M NaHCO3 pH 9.6)/well. Incubate overnight at 4° C. Day 2 • Step 2. Use the plate washer to aspirate anti-DIAPH11 and wash plates 4× with PBS 100 μl per well per wash. • Step 3. Add 180 μl 3% BSA in 1×PBS. […] Detection: Read on fluorescence plate reader excitation […] and 485 nm emission […]
property_label: inhibition at 12.5 µM (%)

CC(=O)Nc1ccc(-c2cc(C(=O)N3CCOCC3)c3cccc(Cl)c3n2)nc1 [Compound 103] = 38
CC(=O)Nc1ccc(-c2cc(CN3CCOCC3)c3cccc(Cl)c3n2)nc1 [Compound 111] = 18
CC(=O)Nc1ccc(-c2cc(C(=O)N3CCOCC3)c3cccc(Cl)c3n2)cn1 [Compound 102] = 37
CC(=O)Nc1ccc(-c2cc(C(=O)N3CCOCC3)c3cccc(Cl)c3n2)cc1 [Compound 101] = 27

A = CC(=O)Nc1ccc(-c2cc(N3CCOCC3)c3ccccc3n2)cc1 [Compound 107]
B = CC(=O)Nc1ccc(-c2cc(CN3CCOCC3)c3cccc(Cl)c3n2)cc1 [Compound 110]
Q) Which entry shows the lesser value of inhibition at 12.5 µM here, A or B ? // respond with label for picked entry
A) B
(B: 20%, A: 31%)
